Assignment: determine reported viability at 0.01 µM for the given compounds.
- Test system: senescent IMR90 ER:RAS cells (4-OHT-induced)
- protocolSummary: Nuclei count (Hoechst, high content imaging) senolytic assay, oncogene-induced senescence (OIS) model, senescent cells
- Assay type: cell-based, human
- conditionLabel: Homo sapiens, IMR-90, 72 h, Senescent, log (dose) [M] -8, 72 h, mean n=3 (Fig 3C); read-out: Mean % Cell Survival
The reply should consist of the numeric value with the unit placed after it.

Q: Find the recorded viability at 0.01 µM belonging to `Cc1c(-c2c(F)cc(C(N)=O)c3[nH]c4c(c23)CC[C@H](C(C)(C)O)C4)cccc1-n1c(=O)c2cccc(F)c2n(C)c1=O` and report it.
Ans: 97.5%

Q: Note, next up: CO[C@H]1C[C@@H]2CC[C@@H](C)[C@@](O)(O2)C(=O)C(=O)N2CCCC[C@H]2C(=O)O[C@H]([C@H](C)C[C@@H]2CC[C@@H](OP(C)(C)=O)[C@H](OC)C2)CC(=O)[C@H](C)/C=C(\C)[C@@H](O)[C@@H](OC)C(=O)[C@H](C)C[C@H](C)/C=C/C=C/C=C/1C [Ridaforolimus, ridaforolimus, reference compound]
Ans: 105%

Q: Note, next up: `O=c1c(O)c(-c2ccc(O)cc2O)oc2cc(O)cc(O)c12`
Ans: 94.2%

Q: Note, next up: `O=c1oc2c(O)c(O)cc3c(=O)oc4c(O)c(O)cc1c4c23`
Ans: 113%

====

Assignment: determine reported viability at 0.219 µM for the given compounds.
- Tested on: non-senescent control A549 cells
- protocolSummary: Nuclei count senolytic assay, TIS model, non-senescent control cells
- Assay type: cell-based, human
- conditionLabel: Homo sapiens, A549; log (dose) [M] -6.66; Control cells; mean; read-out: Mean % Cell Survival
Please respond with the number in % and leave the unit unwritten.

Q: Find the recorded viability at 0.219 µM belonging to `COc1cc(/C=C/C(=O)O[C@H]2CC[C@]34C[C@]35CC[C@]3(C)[C@@H]([C@H](C)CCC=C(C)C)CC[C@@]3(C)[C@@H]5CC[C@H]4C2(C)C)ccc1O` and report it.
Ans: 109

Q: Note, next up: `Cc1c(-c2c(F)cc(C(N)=O)c3[nH]c4c(c23)CC[C@H](C(C)(C)O)C4)cccc1-n1c(=O)c2cccc(F)c2n(C)c1=O`
Ans: 37.1

Q: Note, next up: CO[C@H]1C[C@@H]2CC[C@@H](C)[C@@](O)(O2)C(=O)C(=O)N2CCCC[C@H]2C(=O)O[C@H]([C@H](C)C[C@@H]2CC[C@@H](OCCO)[C@H](OC)C2)CC(=O)[C@H](C)/C=C(\C)[C@@H](O)[C@@H](OC)C(=O)[C@H](C)C[C@H](C)/C=C/C=C/C=C/1C [Everolimus, everolimus, reference compound]
Ans: 103

Q: Note, next up: CC1(C)CCC(c2ccc(Cl)cc2)=C(CN2CCN(c3ccc(C(=O)NS(=O)(=O)c4ccc(N[C@H](CCN5CCOCC5)CSc5ccccc5)c(S(=O)(=O)C(F)(F)F)c4)cc3)CC2)C1 [navitoclax, reference compound]
Ans: 109

====

- Test system: senescent A549 cells (etoposide-induced)
- protocolSummary: Nuclei count senolytic assay, therapy-induced senescence (TIS) model, senescent cells
- Assay type: cell-based, human
- conditionLabel: Homo sapiens, A549; log (dose) [M] -7.33; Senescent cells; mean; read-out: Mean % Cell Survival
Response field label: string, one of met (viability at 0.0468 µM strictly below 90%) or not met.

Q: Is the reported viability at 0.0468 µM for O=c1oc2c(O)c(O)cc3c(=O)oc4c(O)c(O)cc1c4c23 [Ellagic acid, ellagic acid] strictly below 90%?
Ans: not met

Q: Note, next up: CO[C@H]1C[C@@H]2CC[C@@H](C)[C@@](O)(O2)C(=O)C(=O)N2CCCC[C@H]2C(=O)O[C@H]([C@H](C)C[C@@H]2CC[C@@H](O)[C@H](OC)C2)CC(=O)[C@H](C)/C=C(\C)[C@@H](O)[C@@H](OC)C(=O)[C@H](C)C[C@H](C)/C=C/C=C/C=C/1C [Rapamycin, rapamycin, reference compound]
Ans: not met

Q: Note, next up: COC[C@H]1C[C@@H](c2nc(-c3ccc4c(c3)COc3cc5c(ccc6nc([C@@H]7CC[C@H](C)N7C(=O)[C@@H](NC(=O)OC)C(C)C)[nH]c65)cc3-4)c[nH]2)N(C(=O)[C@H](NC(=O)OC)c2ccccc2)C1 [Velpatasvir, velpatasvir, reference compound]
Ans: not met

Q: Note, next up: CO[C@H]1C[C@@H]2CC[C@@H](C)[C@@](O)(O2)C(=O)C(=O)N2CCCC[C@H]2C(=O)O[C@H]([C@H](C)C[C@@H]2CC[C@@H](OP(C)(C)=O)[C@H](OC)C2)CC(=O)[C@H](C)/C=C(\C)[C@@H](O)[C@@H](OC)C(=O)[C@H](C)C[C@H](C)/C=C/C=C/C=C/1C [Ridaforolimus, ridaforolimus, reference compound]
Ans: met

Q: Note, next up: CO[C@H]1C[C@@H]2CC[C@@H](C)[C@@](O)(O2)C(=O)C(=O)N2CCCC[C@H]2C(=O)O[C@H]([C@H](C)C[C@@H]2CC[C@H](n3cnnn3)[C@H](OC)C2)CC(=O)[C@H](C)/C=C(\C)[C@@H](O)[C@@H](OC)C(=O)[C@H](C)C[C@H](C)/C=C/C=C/C=C/1C [Zotarolimus, zotarolimus, reference compound]
Ans: not met

Q: Note, next up: O=c1c(O)c(-c2ccc(O)cc2)oc2c(O)c(O)cc(O)c12 [Herbacetin, herbacetin]
Ans: not met

Q: Note, next up: CO[C@H]1C[C@H](O[C@H]2CC[C@@]3(C)[C@H](CC[C@@H]4[C@@H]3CC[C@]3(C)[C@@H](C5=CC(=O)OC5)[C@@H](OC(C)=O)C[C@]43O)C2)O[C@@H](C)[C@@H]1O [Oleandrin, oleandrin]
Ans: met

====

- System: senescent IMR90 ER:RAS cells (4-OHT-induced)
- protocolSummary: Nuclei count (Hoechst, high content imaging) senolytic assay, oncogene-induced senescence (OIS) model, senescent cells
- Format: cell-based, human
- conditionLabel: Homo sapiens, IMR-90, 72 h, Senescent, log (dose) [M] -5.66, 72 h, mean n=3 (Fig 3C); read-out: Mean % Cell Survival
measure: viability at 2.188 µM (%)
Please respond with the number in % and leave the unit unwritten.

Q: So what viability at 2.188 µM did `CO[C@H]1C[C@H](O[C@H]2CC[C@@]3(C)[C@H](CC[C@@H]4[C@@H]3CC[C@]3(C)[C@@H](C5=CC(=O)OC5)[C@@H](OC(C)=O)C[C@]43O)C2)O[C@@H](C)[C@@H]1O` get with senescent IMR90 ER:RAS cells (4-OHT-induced)?
Ans: 5.74

====

- Tested on: non-senescent control IMR90 ER:RAS cells
- protocolSummary: Nuclei count (Hoechst, high content imaging) senolytic assay, OIS model, non-senescent control cells
- Format: cell-based, human
- conditionLabel: Homo sapiens, IMR-90, Control; log (dose) [M] -7.66; read-out: % Cell Survival
Assignment: determine reported viability at 0.0219 µM for the given compounds.
Please respond with the number in % and leave the unit unwritten.

Q: Find the recorded viability at 0.0219 µM belonging to `O=c1c(O)c(-c2ccc(O)cc2)oc2c(O)c(O)cc(O)c12` and report it.
Ans: 98.3

Q: Note, next up: `O=c1c(O)c(-c2ccc(O)cc2O)oc2cc(O)cc(O)c12`
Ans: 98.9

Q: Note, next up: `O=c1cc(-c2ccc(O)cc2)oc2cc(O)c(O)c(O)c12`
Ans: 99.8

Q: Note, next up: CO[C@H]1C[C@@H]2CC[C@@H](C)[C@@](O)(O2)C(=O)C(=O)N2CCCC[C@H]2C(=O)O[C@H]([C@H](C)C[C@@H]2CC[C@H](n3cnnn3)[C@H](OC)C2)CC(=O)[C@H](C)/C=C(\C)[C@@H](O)[C@@H](OC)C(=O)[C@H](C)C[C@H](C)/C=C/C=C/C=C/1C [Zotarolimus, zotarolimus, reference compound]
Ans: 85.6

Q: Note, next up: `Cc1c(-c2c(F)cc(C(N)=O)c3[nH]c4c(c23)CC[C@H](C(C)(C)O)C4)cccc1-n1c(=O)c2cccc(F)c2n(C)c1=O`
Ans: 94.6

Q: Note, next up: `COc1cc(/C=C/C(=O)O[C@H]2CC[C@]34C[C@]35CC[C@]3(C)[C@@H]([C@H](C)CCC=C(C)C)CC[C@@]3(C)[C@@H]5CC[C@H]4C2(C)C)ccc1O`
Ans: 104

Q: Note, next up: COC[C@H]1C[C@@H](c2nc(-c3ccc4c(c3)COc3cc5c(ccc6nc([C@@H]7CC[C@H](C)N7C(=O)[C@@H](NC(=O)OC)C(C)C)[nH]c65)cc3-4)c[nH]2)N(C(=O)[C@H](NC(=O)OC)c2ccccc2)C1 [Velpatasvir, velpatasvir, reference compound]
Ans: 95.3

Q: Note, next up: CO[C@H]1C[C@@H]2CC[C@@H](C)[C@@](O)(O2)C(=O)C(=O)N2CCCC[C@H]2C(=O)O[C@H]([C@H](C)C[C@@H]2CC[C@@H](OCCO)[C@H](OC)C2)CC(=O)[C@H](C)/C=C(\C)[C@@H](O)[C@@H](OC)C(=O)[C@H](C)C[C@H](C)/C=C/C=C/C=C/1C [Everolimus, everolimus, reference compound]
Ans: 115

Q: Note, next up: Cc1cnc(C(=O)N[C@H]2CCCCC/C=C\[C@@H]3C[C@@]3(C(=O)NS(=O)(=O)C3CC3)NC(=O)[C@@H]3C[C@@H](Oc4nc5ccccc5c5ccccc45)CN3C2=O)cn1 [Paritaprevir, paritaprevir, reference compound]
Ans: 97

Q: Note, next up: CO[C@H]1C[C@@H]2CC[C@@H](C)[C@@](O)(O2)C(=O)C(=O)N2CCCC[C@H]2C(=O)O[C@H]([C@H](C)C[C@@H]2CC[C@@H](OP(C)(C)=O)[C@H](OC)C2)CC(=O)[C@H](C)/C=C(\C)[C@@H](O)[C@@H](OC)C(=O)[C@H](C)C[C@H](C)/C=C/C=C/C=C/1C [Ridaforolimus, ridaforolimus, reference compound]
Ans: 113

The measurements presented in this section are drawn from paper PMC10257182.
